The origin of these recorded values is patent US20250129067A1.

Study Target: UniProt P16234
Sequence (P16234 24-1089): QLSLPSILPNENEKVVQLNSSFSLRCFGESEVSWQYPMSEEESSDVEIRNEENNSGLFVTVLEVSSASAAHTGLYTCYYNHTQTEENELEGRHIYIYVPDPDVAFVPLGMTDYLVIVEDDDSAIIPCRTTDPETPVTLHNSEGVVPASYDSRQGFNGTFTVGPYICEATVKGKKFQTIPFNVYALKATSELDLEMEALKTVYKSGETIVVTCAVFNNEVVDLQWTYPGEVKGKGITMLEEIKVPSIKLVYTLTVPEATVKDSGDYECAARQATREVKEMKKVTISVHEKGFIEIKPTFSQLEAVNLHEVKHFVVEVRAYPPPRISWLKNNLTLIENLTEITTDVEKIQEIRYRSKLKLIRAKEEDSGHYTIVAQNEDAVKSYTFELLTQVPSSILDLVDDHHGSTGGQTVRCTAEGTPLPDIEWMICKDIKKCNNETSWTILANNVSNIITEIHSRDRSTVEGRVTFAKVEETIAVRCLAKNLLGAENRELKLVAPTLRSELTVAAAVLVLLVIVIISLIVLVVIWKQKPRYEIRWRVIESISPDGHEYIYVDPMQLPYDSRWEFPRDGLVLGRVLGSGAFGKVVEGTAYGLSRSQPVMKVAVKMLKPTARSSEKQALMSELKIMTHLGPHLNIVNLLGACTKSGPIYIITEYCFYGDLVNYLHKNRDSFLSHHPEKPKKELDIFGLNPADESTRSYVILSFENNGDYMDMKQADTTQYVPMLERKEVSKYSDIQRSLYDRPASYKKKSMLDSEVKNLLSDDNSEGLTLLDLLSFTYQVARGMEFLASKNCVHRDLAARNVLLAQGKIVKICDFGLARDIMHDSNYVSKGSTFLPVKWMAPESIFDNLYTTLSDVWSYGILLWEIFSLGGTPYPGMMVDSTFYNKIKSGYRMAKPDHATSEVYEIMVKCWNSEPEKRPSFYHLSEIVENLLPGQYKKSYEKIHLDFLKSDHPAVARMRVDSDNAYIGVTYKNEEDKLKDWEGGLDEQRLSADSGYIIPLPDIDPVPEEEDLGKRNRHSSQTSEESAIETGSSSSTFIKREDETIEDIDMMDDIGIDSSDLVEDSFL
Experiment Notes: PDGFRα kinase enzyme assay (Promega PDGFRα Kinase Enzyme System, ADP-Glo)
Assay type: biochemical
Condition Parameters: 11-point dose response, 10,000 nM to 0.169 nM; 150 uM ATP; BLQ = below limit of quantitation; read-out: IC50 Values on PDGFRα Kinase Inhibition, IC50
pIC50: −log10 of the molar value.
Measurement Label: pIC50

[[record]]
smiles_representation = "CC(C)(C)OC(=O)N1CCN(c2cnc3nc(-c4cccnc4)ccn23)CC1"
reading = 5.16

[[record]]
smiles_representation = "Cn1cc(-c2ccc3c(N4CCN(c5cnc(Cc6ccccc6)nc5)CC4)cnn3c2)cn1"
reading = 5.17

[[record]]
smiles_representation = "Cn1cc(-c2cnc3c(N4CCN(c5ncc(Cc6ccccc6)cn5)CC4)cnn3c2)cn1"
reading = 5.62

[[record]]
smiles_representation = "Cc1c(-c2ccc3c(N4CCN(C(=O)OC(C)(C)C)CC4)cnn3c2)cnn1C"
reading = 6.30


a = Cn1cc(-c2ccc3c(N4CCN(C(=O)OC(C)(C)C)CC4)cnn3c2)cn1
b = CC(C)(C)OC(=O)N1CCN(c2cnn3cc(-c4cccnc4)ccc23)CC1
Please tell me which of the two, a or b , has the higher reported pIC50 value. Pick one and reply with its label.
a
